system: A498 renal; assay: NCI tumour cell line growth inhibition, 48 h
Property Label: TGI

Some solved cases for reference:
{"columns": ["Molecule", "Assayed Target", "TGI"],
 "data": [
  ["COc1ccccc1/C=C/C1=NN(c2cccc(S(=O)(=O)O)c2)C2(C1)SCC(=O)N2c1nc2ccccc2s1 (stereo not drawn)", "A498 renal", "> 100 µM"],
  ["Cc1ccccc1NC(=O)C(=O)C(C#N)c1ccc(Cl)cc1 (stereo not drawn)", "A498 renal", "> 100 µM"]
]}

Now take the following molecule into account.
Record O=C(CN1CCN(Cc2ccccc2)CC1)c1ccc2[nH]c(=O)oc2c1 , field TGI: > 100 µM

----------
test system: CCRF-CEM leukemia; assay: NCI tumour cell line growth inhibition, 48 h; in the data active means GI50 below about 0.43 µM; inactive means the rest
Hello, when you answer, please use one of the following outcomes: active, inactive

{"columns": ["Compound", "Category"],
 "data": [
  ["O=C1C(Cl)=C(Nc2cccc(Cl)c2)C(=O)N1Cc1ccccc1", "inactive"],
  ["CC(=O)NCCc1c2c(c3nccc4c3c1Nc1ccccc1-4)OCS2", "inactive"],
  ["OC(c1cccc(-n2ccc(C(F)(F)F)n2)c1)c1cnccc1NC1CCCCCC1 (stereo not given)", "inactive"],
  ["COC(=O)CCC(=O)C(=O)OC", "inactive"]
]}

Then there is this compound:
stdin: Lab log entry: COc1cc(NS(C)(=O)=O)ccc1Nc1c2ccc([N+](=O)[O-])cc2nc2c(C)cccc12 — outcome as called in the assay?
stdout: active

----------
test system: OVCAR-4 ovarian; assay: NCI tumour cell line growth inhibition, 48 h
Property Label: TGI

Example entries and their recorded answers appear below.
{"columns": ["Compound", "TGI"],
 "data": [
  ["O=C(Nc1cccc(-n2ccc3c(NC(=O)c4ccccc4)nccc32)c1)c1ccc(N2CCOCC2)c(C(F)(F)F)c1", "> 70.7 µM"],
  ["Cc1cc(N(CCC#N)CCC#N)ccc1/C=C1N=C(/C=C\\c2ccccc2)OC\\1=O", "> 100 µM"],
  ["Nc1cc2c3c(c1)Oc1cc(N)cc4c1C3c1c(cc(N)cc1O4)O2", "> 100 µM"]
]}

For every item below, please supply its TGI.
1. OCC1OC(n2nc(-c3ccccc3)nc2-c2cnccn2)C(O)C(O)C1O (stereo not given)
2. Clc1ncnc(Cl)c1Cl

stdout:
1. > 100 µM
2. > 100 µM

Please give TGI, item by item, for the list that follows.
1. CN(C)CCOc1cccc2c1C(=O)c1ccccc1C2=O
2. COc1ccccc1/C=C(\C#N)c1ccccc1
3. CC1(C)CC23C4COC(=O)C2CCC1C3CC4=O (stereo not given)
4. O=c1sc2c(s1)SSSSS2
5. COc1cc(Cc2cc3c(c(C(=O)O)c2Br)OCO3)cc(OC)c1OC

stdout:
["20.4 µM", "> 100 µM", "64.2 µM", "> 50 µM", "> 100 µM"]

----------
test system: CCRF-CEM leukemia; test: NCI tumour cell line growth inhibition, 48 h
Property Label: TGI

{"columns": ["Molecule", "TGI"],
 "data": [
  ["CCc1nc(N)nc(N)c1-c1ccc(NCCN)c([N+](=O)[O-])c1", "> 72.4 µM"],
  ["OC1[C@H]([C@H]2CCCC[C@@H]2O)CCC[C@@H]1[C@@H]1CCCC[C@H]1O (stereo partly specified)", "> 100 µM"],
  ["COc1ccc(OC)c(/C=N/NC(=O)Cc2csc3nc(-c4ccc(Br)cc4)cn23)c1", "> 100 µM"],
  ["Cc1c(C#N)c2nnn(-c3ccc(Cl)cc3)c(=O)n2c1-c1ccccc1", "> 100 µM"],
  ["ON/N=C/c1cc2c(cc1Br)OCO2", "> 386 µM"]
]}

Lab note: measured TGI of COc1ccccc1NC(=O)c1sc2nc3c(cc2c1N)C(=O)CCC3 was > 100 µM

----------
test system: SF-268 CNS; test: NCI tumour cell line growth inhibition, 48 h
Property Label: TGI

As a guide, the following entries are already answered.
{"columns": ["Molecule", "Assayed Target", "TGI"],
 "data": [
  ["COc1ccc(C2=CC(c3ccccc3)n3nnnc3N2)cc1 (stereo not drawn)", "SF-268 CNS", "> 100 µM"],
  ["Nc1c(C(=O)c2cccc(CCCN3CCOCC3)c2)cnn1-c1ccc(F)cc1", "SF-268 CNS", "> 25 µM"]
]}

Continue with the molecule presented below.
Item: Cc1ccc(S(=O)(=O)N2CCCN(S(=O)(=O)c3ccc(C)cc3)CCN(S(=O)(=O)c3ccc(C)cc3)CCCSCC2)cc1 | TGI: > 100 µM

----------
test system: NCI-H460 lung; experiment: NCI tumour cell line growth inhibition, 48 h
Property Label: TGI

{"columns": ["Smiles Entry", "TGI"],
 "data": [
  ["O=C(Nc1c(O)[nH]c(=S)[nH]c1=O)c1ccccc1F", "> 100 µM"],
  ["O=C(/C=C1\\N=C(c2ccccc2)N(c2nc3ccc(Sc4ccccc4)cc3[nH]2)C1=O)/C=C/c1ccccc1", "> 100 µM"],
  ["Cc1cccc(NC(=O)CCc2ccc(N3C(N)=NC(N)=NC3(C)C)cc2)c1", "> 100 µM"],
  ["NC(=O)c1nnc2ccc(F)cc2c1N", "> 100 µM"],
  ["O=c1cc(NCCCCCO)[nH]c(=O)[nH]1", "> 100 µM"]
]}

Now, please, on to the next compound.
Field TGI (system: NCI-H460 lung) for entry O=C1OC(c2ccccc2)=N/C1=C\c1cccnc1 = > 100 µM

----------
system: MALME-3M melanoma; assay: NCI tumour cell line growth inhibition, 48 h
Kindly state TGI for each of the entries shown.

{"columns": ["Compound", "TGI"],
 "data": [
  ["N#Cc1c(N2CCCC2)nsc1NCc1ccccc1", "> 100 µM"]
]}

Field: TGI. Fill in for each record below.
1. CC1(C)[C@H](C(=O)O)N2C(=O)[C@@H](NS(=O)(=O)c3ccc([N+](=O)[O-])cc3)[C@H]2S1(=O)=O
2. NC1=NC(=O)/C(=C/c2ccccc2[N+](=O)[O-])C(N)=N1
3. O=c1sc2c(s1)SSSSS2
4. Nc1sc2c(c1C(=O)c1ccc(Cl)c(Cl)c1)CCCC2
5. N/C(=N\N=C/c1ccccc1O)NO
6. COc1ccc(C2CC(=O)c3c(O)cc(O)cc3O2)cc1O (configuration not stated)

stdout:
> 100 µM
> 100 µM
> 50 µM
> 100 µM
> 84.1 µM
> 100 µM

----------
system: HCT-116 colon; assay: NCI tumour cell line growth inhibition, 48 h
Please provide measured TGI for the entries that follow.

# example entries with known answers
{"columns": ["Compound", "TGI"],
 "data": [
  ["OCC1OC(n2nc(-c3ccccc3)nc2-c2cnccn2)C(O)C(O)C1O (centres undefined)", "> 100 µM"],
  ["C/C(CN1C(=O)c2ccccc2C1=O)=N\\NS(=O)(=O)c1ccc(C)cc1", "> 100 µM"],
  ["O=C(O)c1ccccc1NC(c1ccccc1)c1ccc2cccnc2c1O (centres undefined)", "> 64.2 µM"]
]}

Here is the next item to consider.
TGI for HCT-116 colon with input C=C(CN(C)C)C(=O)c1ccccc1C equals > 57.1 µM

----------
Give measured TGI for each item. Keep answers brief.
system: SN12C renal; assay: NCI tumour cell line growth inhibition, 48 h

{"columns": ["Compound", "Assayed Target", "TGI"],
 "data": [
  ["OC1[C@H]([C@H]2CCCC[C@@H]2O)CCC[C@@H]1[C@@H]1CCCC[C@H]1O (stereo partly drawn)", "SN12C renal", "> 100 µM"]
]}

Provide the reported TGI of each entry below, same order.
1. NC(=O)NNCc1ccccc1
2. CN(C)c1ccc2c(=O)c3ccccc3oc2n1
3. O=C(Nn1c(-c2ccccc2)nc2ccccc2c1=O)c1ccc(CS)cc1

stdout:
["> 100 µM", "> 100 µM", "> 100 µM"]

----------
tested on: MDA-MB-435; assay: NCI tumour cell line growth inhibition, 48 h
Property Label: TGI

Previously resolved entries follow.
{"columns": ["Smiles Entry", "TGI"],
 "data": [
  ["Nc1c(C(=O)c2cccc(CCCN3CCOCC3)c2)cnn1-c1ccc(F)cc1", "> 25 µM"],
  ["Cc1ccc(C2=Nc3cc(C)c(Cl)cc3S(=O)(=O)NN2)cc1", "> 100 µM"],
  ["Cc1cccc(NC(=O)CCc2ccc(N3C(N)=NC(N)=NC3(C)C)cc2)c1", "> 100 µM"]
]}

State the recorded TGI for every item in the following list.
1. CCOC(=O)NC(Nc1ncccn1)(C(F)(F)F)C(F)(F)F
2. O=C(OCc1ccccc1CN1CCOCC1)c1cccc(Br)c1

stdout:
["> 100 µM", "> 100 µM"]

----------
system: RPMI-8226 leukemia; assay: NCI tumour cell line growth inhibition, 48 h
Okay, here is how we bin by TGI: bottom bin: < 5 µM; middle bin: ≥ 5 µM and < 60 µM; top bin: ≥ 60 µM

{"columns": ["Compound", "Assayed Target", "Category"],
 "data": [
  ["Clc1ccc(CSC(Cn2ccnc2)c2ccc(Cl)cc2Cl)cc1 (configuration not stated)", "RPMI-8226 leukemia", "bottom bin"],
  ["O=C(Nc1ccc(Cl)cc1Cl)C1C(=O)N(c2ccc(Cl)cc2Cl)C(=O)/C1=N\\Nc1ccc([N+](=O)[O-])cc1[N+](=O)[O-] (configuration not stated)", "RPMI-8226 leukemia", "top bin"]
]}

stdin: Quick check: band for CC(C)(C)c1cc(C(=O)Nc2cc(Br)c(Br)cc2S(N)(=O)=O)cc(C(C)(C)C)c1O
stdout: top bin

stdin: Which bin, given its TGI, does Nc1sc2c(c1C(=O)c1ccc(Cl)c(Cl)c1)CCCC2 occupy?
stdout: top bin

stdin: Exercise: read the entry Cc1cc(N(CCC#N)CCC#N)ccc1/C(N=Nc1ccc(Cl)cc1)=N\NC(=O)c1cc(Cl)ccc1O and state which class it falls under.
stdout: top bin

stdin: Category lookup for the compound CN(C)c1ccc2c(=O)c3ccccc3oc2n1
stdout: top bin

stdin: The entry to classify is NCC(=O)NC1(c2cc3ccccc3s2)CCCCC1 ; which class holds it?
stdout: middle bin
